The compounds listed here are annotated with their IC50.
TESTED_TARGET: Lytic switch protein BZLF1 (Epstein-Barr virus (strain B95-8)) (UniProt P03206)
Sequence (P03206 whole entry, looked up): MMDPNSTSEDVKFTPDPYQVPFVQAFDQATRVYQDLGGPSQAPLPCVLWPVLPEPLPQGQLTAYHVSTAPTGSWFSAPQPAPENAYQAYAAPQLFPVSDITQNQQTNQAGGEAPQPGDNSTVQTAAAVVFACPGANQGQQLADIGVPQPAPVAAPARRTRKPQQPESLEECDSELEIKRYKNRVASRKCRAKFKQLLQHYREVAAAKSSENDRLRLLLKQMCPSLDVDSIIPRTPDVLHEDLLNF
MEASUREMENT_NOTES: Zta-DNA binding inhibition potency, late-stage follow-up, counter-screen for EBNA-1 inhibitor project, biochemical, fluorescence polarization, dose response, round 0 (AID 488998)
RUN_PARAMETERS: purified Zta–Cy5 ZRE DNA binding
Calls of active or inactive are those of the source.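 The calls were made as follows: active = IC50 at or below 10 µM; inactive = IC50 above 10 µM.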

COMPOUND	TESTED_TARGET	IC50
COc1ccc(C(=O)Nc2nc3ccc(S(C)(=O)=O)cc3s2)cc1	Lytic switch protein BZLF1 (Epstein-Barr virus (strain B95-8)) (UniProt P03206)	> 111 µM (inactive)
Cc1cc(C(=O)CSc2nnnn2C)c(C)n1CC1CCCO1 (stereo unspecified)	Lytic switch protein BZLF1 (Epstein-Barr virus (strain B95-8)) (UniProt P03206)	> 111 µM (inactive)
COc1ccc2sc(NC(=O)c3ccc(C)c(C)c3)nc2c1	Lytic switch protein BZLF1 (Epstein-Barr virus (strain B95-8)) (UniProt P03206)	> 111 µM (inactive)
Cc1cccc(C(=O)Nc2nc3ccc(S(C)(=O)=O)cc3s2)c1	Lytic switch protein BZLF1 (Epstein-Barr virus (strain B95-8)) (UniProt P03206)	> 111 µM (inactive)
COc1ccccc1C(=O)Nc1nc2ccc(S(C)(=O)=O)cc2s1	Lytic switch protein BZLF1 (Epstein-Barr virus (strain B95-8)) (UniProt P03206)	> 111 µM (inactive)
CS(=O)(=O)c1ccc2nc(NC(=O)c3ccccc3Cl)sc2c1	Lytic switch protein BZLF1 (Epstein-Barr virus (strain B95-8)) (UniProt P03206)	> 111 µM (inactive)
Cc1ccccc1C(=O)Nc1nc2ccc(S(C)(=O)=O)cc2s1	Lytic switch protein BZLF1 (Epstein-Barr virus (strain B95-8)) (UniProt P03206)	> 111 µM (inactive)
COc1cccc2sc(NC(=O)c3ccc(C)c(C)c3)nc12	Lytic switch protein BZLF1 (Epstein-Barr virus (strain B95-8)) (UniProt P03206)	> 111 µM (inactive)
Cc1cc(C(=O)CSc2nnnn2-c2cccc(F)c2)c(C)n1CC1CCCO1 (stereo unspecified)	Lytic switch protein BZLF1 (Epstein-Barr virus (strain B95-8)) (UniProt P03206)	> 111 µM (inactive)
COc1cccc(C(=O)Nc2nc3ccc(S(C)(=O)=O)cc3s2)c1	Lytic switch protein BZLF1 (Epstein-Barr virus (strain B95-8)) (UniProt P03206)	> 111 µM (inactive)
Cc1cc(C(=O)CSc2nnnn2-c2ccccc2)c(C)n1Cc1cccs1	Lytic switch protein BZLF1 (Epstein-Barr virus (strain B95-8)) (UniProt P03206)	> 111 µM (inactive)
